Test system: PPARg:RXRa (NR concentration 180 nM, RXRa partner concentration 90 nM)
Experiment: PBM binding z-score (relative to random genomic background probes); higher = stronger binding; sequences stand for … in GC…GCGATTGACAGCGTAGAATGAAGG
The threshold is inclusive: PBM binding z-score of exactly 0.6 counts as satisfied; values below receive not satisfied.

> print(dat)
                              residues  assigned.label
 1  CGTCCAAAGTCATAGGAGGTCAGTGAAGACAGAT       satisfied
 2  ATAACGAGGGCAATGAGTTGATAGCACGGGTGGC       satisfied
 3  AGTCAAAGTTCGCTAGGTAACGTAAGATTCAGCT       satisfied
 4  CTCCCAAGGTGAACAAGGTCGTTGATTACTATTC   not satisfied
 5  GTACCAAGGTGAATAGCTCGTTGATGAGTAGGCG   not satisfied
 6  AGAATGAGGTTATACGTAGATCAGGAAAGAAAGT       satisfied
 7  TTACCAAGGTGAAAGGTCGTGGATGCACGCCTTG       satisfied
 8  TCTGCTAAGTCAACGATGGTCAGCTAATCTGCTA   not satisfied
 9  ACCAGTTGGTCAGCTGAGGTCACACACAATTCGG       satisfied
10  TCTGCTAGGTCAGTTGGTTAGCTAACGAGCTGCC   not satisfied
11  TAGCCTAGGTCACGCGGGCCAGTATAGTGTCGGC       satisfied
12  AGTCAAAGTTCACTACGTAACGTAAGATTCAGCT       satisfied
13  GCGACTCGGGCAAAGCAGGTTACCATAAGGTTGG   not satisfied
14  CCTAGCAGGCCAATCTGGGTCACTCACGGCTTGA       satisfied
15  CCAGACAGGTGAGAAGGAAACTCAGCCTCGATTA   not satisfied
16  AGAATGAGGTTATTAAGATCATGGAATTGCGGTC       satisfied
17  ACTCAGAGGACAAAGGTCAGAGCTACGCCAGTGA       satisfied
18  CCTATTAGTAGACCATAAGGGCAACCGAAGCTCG       satisfied
19  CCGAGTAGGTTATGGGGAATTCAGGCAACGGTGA       satisfied
20  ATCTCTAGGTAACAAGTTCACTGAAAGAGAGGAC       satisfied
21  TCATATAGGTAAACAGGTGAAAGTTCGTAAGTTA       satisfied
22  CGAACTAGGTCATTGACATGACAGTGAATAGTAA       satisfied
23  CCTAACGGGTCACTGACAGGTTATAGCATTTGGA       satisfied
24  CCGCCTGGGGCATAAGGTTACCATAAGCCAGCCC   not satisfied
25  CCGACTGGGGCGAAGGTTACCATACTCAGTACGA       satisfied
26  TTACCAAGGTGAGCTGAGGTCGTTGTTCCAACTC   not satisfied
27  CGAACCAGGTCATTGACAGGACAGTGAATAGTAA       satisfied
28  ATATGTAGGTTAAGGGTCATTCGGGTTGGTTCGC       satisfied

====

Test system: PPARg:RXRa (NR concentration 180 nM, RXRa partner concentration 90 nM)
Experiment: PBM binding z-score (relative to random genomic background probes); higher = stronger binding; sequences stand for … in GC…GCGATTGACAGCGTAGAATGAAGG
Reported Property: PBM binding z-score

> print(dat)
                              residues  numeric.readout
 1  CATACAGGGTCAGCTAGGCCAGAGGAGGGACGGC             3.63
 2  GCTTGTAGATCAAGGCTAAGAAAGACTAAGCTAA           -0.447
 3  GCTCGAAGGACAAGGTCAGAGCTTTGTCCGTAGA            0.738
 4  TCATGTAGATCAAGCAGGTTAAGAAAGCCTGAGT           -0.116
 5  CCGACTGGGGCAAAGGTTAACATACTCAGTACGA             11.3
 6  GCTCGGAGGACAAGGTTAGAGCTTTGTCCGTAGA           -0.843
 7  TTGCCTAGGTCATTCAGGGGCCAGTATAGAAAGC             2.07
 8  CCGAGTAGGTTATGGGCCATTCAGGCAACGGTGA             2.14
 9  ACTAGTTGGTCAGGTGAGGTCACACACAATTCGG             2.36
10  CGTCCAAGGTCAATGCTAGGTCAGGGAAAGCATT             4.49
11  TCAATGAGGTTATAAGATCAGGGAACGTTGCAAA             1.07
12  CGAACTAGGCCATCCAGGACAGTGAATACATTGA             2.39
13  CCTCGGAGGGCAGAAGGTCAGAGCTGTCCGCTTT            0.613
14  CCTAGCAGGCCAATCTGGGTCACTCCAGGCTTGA             1.99
15  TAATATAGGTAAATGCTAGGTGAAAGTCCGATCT             2.64
16  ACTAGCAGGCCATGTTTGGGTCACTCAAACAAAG            0.145
17  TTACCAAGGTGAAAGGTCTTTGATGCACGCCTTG             5.56
18  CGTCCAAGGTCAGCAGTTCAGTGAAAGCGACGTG             2.78
19  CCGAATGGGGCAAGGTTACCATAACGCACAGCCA             1.51
20  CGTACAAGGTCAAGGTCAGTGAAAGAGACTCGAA             7.35
21  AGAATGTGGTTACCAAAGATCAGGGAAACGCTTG            0.469
22  TCTTCTAGATCAAGCAGGTTAAGAAAGCCTGAGT           -0.479
23  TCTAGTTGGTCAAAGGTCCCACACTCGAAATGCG              6.7
24  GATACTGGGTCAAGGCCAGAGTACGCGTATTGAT              5.9
25  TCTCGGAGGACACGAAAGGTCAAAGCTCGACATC             2.15
26  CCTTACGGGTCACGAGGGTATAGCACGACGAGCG             6.45
27  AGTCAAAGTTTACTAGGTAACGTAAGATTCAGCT             3.46
28  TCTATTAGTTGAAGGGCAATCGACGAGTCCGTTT           0.0366
29  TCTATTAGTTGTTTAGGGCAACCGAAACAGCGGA          -0.0257
30  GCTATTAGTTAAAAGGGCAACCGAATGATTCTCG             1.84
31  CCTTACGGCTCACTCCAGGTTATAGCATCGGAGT            0.265
32  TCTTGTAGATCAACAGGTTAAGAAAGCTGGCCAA         0.000535
33  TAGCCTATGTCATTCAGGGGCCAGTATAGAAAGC            0.175
34  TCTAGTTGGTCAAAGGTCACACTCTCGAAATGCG             11.1
35  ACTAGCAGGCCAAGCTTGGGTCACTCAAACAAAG          0.00964
36  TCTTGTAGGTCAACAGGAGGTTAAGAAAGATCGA             7.68
37  CTACCAAGGTGAAGAAGGTCGTTGATTACTATTC            0.281
38  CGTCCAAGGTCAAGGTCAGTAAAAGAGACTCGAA             6.21
39  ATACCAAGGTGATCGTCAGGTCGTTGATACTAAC             0.38
40  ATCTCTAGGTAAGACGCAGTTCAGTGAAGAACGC             0.38
41  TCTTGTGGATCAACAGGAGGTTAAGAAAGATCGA          0.00768
42  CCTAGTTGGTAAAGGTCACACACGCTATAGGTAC             5.47

====

System: RARb:RXRa (NR concentration 270 nM, RXRa partner concentration 90 nM)
Experiment: PBM binding z-score (relative to random genomic background probes); higher = stronger binding; sequences stand for … in GC…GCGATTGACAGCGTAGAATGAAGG
Using PBM binding z-score as the sorting value, the categories are L = under 0.7, M = from 0.7 up to 2, H = 2 and over

> print(dat)
                              residues  assigned.label
 1  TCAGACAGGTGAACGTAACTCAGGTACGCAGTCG               M
 2  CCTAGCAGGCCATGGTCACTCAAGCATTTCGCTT               L
 3  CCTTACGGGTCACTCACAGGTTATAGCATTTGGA               H
 4  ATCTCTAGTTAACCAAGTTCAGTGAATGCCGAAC               M
 5  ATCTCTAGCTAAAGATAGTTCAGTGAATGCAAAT               L
 6  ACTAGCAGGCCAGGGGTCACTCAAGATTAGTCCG               H
 7  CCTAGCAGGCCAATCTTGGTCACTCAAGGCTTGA               L
 8  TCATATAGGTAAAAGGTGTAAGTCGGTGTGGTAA               L
 9  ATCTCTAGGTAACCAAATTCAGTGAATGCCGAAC               L
10  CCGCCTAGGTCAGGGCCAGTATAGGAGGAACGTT               H
11  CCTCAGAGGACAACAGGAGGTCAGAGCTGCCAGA               H
12  CCGACTGGGGCAAGGTTACGATAACGCACAGCCA               M
13  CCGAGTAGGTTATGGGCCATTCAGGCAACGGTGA               M

Source of measurements: the supplement of paper PMC6555819
